Source: patent US5561126A

Record form. Attribute: Mortality in 12 days. Fill in for each entry.
system: Sarcoma 180; test: In Vivo Antitumor Activity Against Sarcoma 180; conditions: 12.5 mg/kg/day, i.p., days 1, 5 and 9

>  <Molecule>
CC(=O)OC[C@H]1CN2C(=O)C[C@@H]2O1 (racemic) [compound 4]

>  <Mortality in 12 days>
0/7

$$$$
>  <Molecule>
COc1ccc(C(=O)OC[C@H]2CN3C(=O)C[C@@H]3O2)cc1 (relative stereo) [compound 20]

>  <Mortality in 12 days>
0/7

$$$$
>  <Molecule>
O=C(/C=C\C(=O)OC[C@H]1CN2C(=O)C[C@@H]2O1)OC[C@H]1CN2C(=O)C[C@@H]2O1 (relative stereo) [compound 30]

>  <Mortality in 12 days>
0/6

$$$$
>  <Molecule>
O=C(OC[C@H]1CN2C(=O)C[C@@H]2O1)c1ccc(F)cc1 (racemic) [compound 31]

>  <Mortality in 12 days>
0/7

$$$$

Let us examine a further case.
Data request: Form entry - test system: Sarcoma 180; read-out: Mortality in 12 days; molecule: O=C1C[C@@H]2O[C@@H](CS(=O)(=O)Cc3ccccc3)CN12 (racemic) [compound 43]
Data returned: 0/6
